The origin of these recorded values is ChEMBL document CHEMBL5126517.

target: UniProtKB O35493; assay: Inhibition of GST-fused mouse recombinant CLK4 expressed in Escherichia coli using GRSRSRSRSRSR peptide as substrate incubated for 30 mins in presence of ATP by scintillation counting method
Sequence (O35493 whole entry, the tested form may be a part): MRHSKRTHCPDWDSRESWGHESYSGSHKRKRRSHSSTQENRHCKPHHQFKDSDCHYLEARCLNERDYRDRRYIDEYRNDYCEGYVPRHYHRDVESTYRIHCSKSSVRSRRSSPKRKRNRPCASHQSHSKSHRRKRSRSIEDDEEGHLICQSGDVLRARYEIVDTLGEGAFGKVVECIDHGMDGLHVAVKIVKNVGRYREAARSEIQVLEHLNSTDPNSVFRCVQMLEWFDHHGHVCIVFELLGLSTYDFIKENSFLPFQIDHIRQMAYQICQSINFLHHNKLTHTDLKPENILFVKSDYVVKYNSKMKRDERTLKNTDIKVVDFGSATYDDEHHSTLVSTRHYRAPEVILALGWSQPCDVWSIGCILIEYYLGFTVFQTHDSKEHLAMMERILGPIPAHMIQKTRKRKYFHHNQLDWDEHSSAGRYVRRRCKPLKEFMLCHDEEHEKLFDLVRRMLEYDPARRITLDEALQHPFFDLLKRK
Decide using IC50 alone. Strictly below 100 nM: label 1. Equal to or above 100 nM: label 0.

| Chemical Structure | Assigned Category |
| --- | --- |
| CCCCCCc1ccc(NC2=N/C(=C\c3ccc4c(c3)OCO4)C(=O)N2)cc1 | label 0 |
| CCCNC1=N/C(=C\c2ccc3c(c2)OCO3)C(=O)N1CCC | label 0 |
| COc1cccc(/C=C2\N=C(Nc3ccccc3)NC2=O)c1 | label 0 |
| O=C1NC(Nc2ccccc2)=N/C1=C\c1ccc2c(c1)CCO2 | label 1 |
| O=C1NC(Nc2ccc(F)cc2)=N/C1=C\c1ccc2c(c1)OCO2 | label 1 |
| O=C1NC(Nc2ccccc2)=N/C1=C\c1ccc2c(c1)CCCO2 | label 0 |
| CN(C1=N/C(=C\c2ccc3c(c2)OCO3)C(=O)N1)c1ccccc1 | label 0 |
| O=C1NC(N2CCC(N3CCCCC3)CC2)=N/C1=C\c1ccc2c(c1)OCO2 | label 0 |
| O=C1NC(Nc2ccccc2)=N/C1=C\c1ccc(O)c(O)c1 | label 0 |
| COc1cc(/C=C2\N=C(Nc3ccccc3)NC2=O)ccc1O | label 1 |
| O=C1NC(Nc2ccccc2)=N/C1=C\c1ccc(F)cc1 | label 0 |
| CCSC1=N/C(=C\c2ccc3c(c2)OCO3)C(=O)N1C | label 0 |
